experiment summary: Inhibition of calcineurin phosphatase activity (unknown origin) assessed as R2 phosphopeptide dephosphorylation after 30 mins by malachite green staining assay in presence of calmodulin and CypA
Listed below: IC50 values for each entry.
Write it as a number; the unit µM goes unstated.

CC[C@@H]1NC(=O)[C@H]([C@H](O)[C@H](C)Cc2nc3ccccc3c(=O)[nH]2)N(C)C(=O)[C@H](C(C)C)N(C)C(=O)[C@H](CC(C)C)N(C)C(=O)[C@H](CC(C)C)N(C)C(=O)[C@@H](C)NC(=O)[C@H](C)NC(=O)[C@H](CC(C)C)N(C)C(=O)[C@H](C(C)C)NC(=O)[C@H](CC(C)C)N(C)C(=O)CN(C)C1=O : 4.6
CC[C@@H]1NC(=O)[C@H]([C@H](O)[C@H](C)Cc2nc3ccc(C(=O)OC)cc3[nH]2)N(C)C(=O)[C@H](C(C)C)N(C)C(=O)[C@H](CC(C)C)N(C)C(=O)[C@H](CC(C)C)N(C)C(=O)[C@@H](C)NC(=O)[C@H](C)NC(=O)[C@H](CC(C)C)N(C)C(=O)[C@H](C(C)C)NC(=O)[C@H](CC(C)C)N(C)C(=O)CN(C)C1=O : 6.9
CC[C@@H]1NC(=O)[C@H]([C@H](O)[C@H](C)Cc2nc3ccccc3[nH]2)N(C)C(=O)[C@H](C(C)C)N(C)C(=O)[C@H](CC(C)C)N(C)C(=O)[C@H](CC(C)C)N(C)C(=O)[C@@H](C)NC(=O)[C@H](C)NC(=O)[C@H](CC(C)C)N(C)C(=O)[C@H](C(C)C)NC(=O)[C@H](CC(C)C)N(C)C(=O)CN(C)C1=O : 1.2
CC[C@@H]1NC(=O)[C@H]([C@H](O)[C@H](C)Cc2nc3ccc(C)cc3[nH]2)N(C)C(=O)[C@H](C(C)C)N(C)C(=O)[C@H](CC(C)C)N(C)C(=O)[C@H](CC(C)C)N(C)C(=O)[C@@H](C)NC(=O)[C@H](C)NC(=O)[C@H](CC(C)C)N(C)C(=O)[C@H](C(C)C)NC(=O)[C@H](CC(C)C)N(C)C(=O)CN(C)C1=O : 3.4

Below: the item to evaluate.
[ask] Return reported IC50; argument: CC[C@@H]1NC(=O)[C@H]([C@H](O)[C@H](C)Cc2nc3ccccc3s2)N(C)C(=O)[C@H](C(C)C)N(C)C(=O)[C@H](CC(C)C)N(C)C(=O)[C@H](CC(C)C)N(C)C(=O)[C@@H](C)NC(=O)[C@H](C)NC(=O)[C@H](CC(C)C)N(C)C(=O)[C@H](C(C)C)NC(=O)[C@H](CC(C)C)N(C)C(=O)CN(C)C1=O
[reply] 4.5
